Measured values drawn from patent US20240254222A1 for this set.

Target: T1, Human Semaphorin3A-Fc (R&D Systems), TPP-13211 (human)
T1 construct: R&D Systems 1250-S3; also called recombinant human Sema3A-Fc chimera
T1 sequence (chain, as listed by the source limits assumed): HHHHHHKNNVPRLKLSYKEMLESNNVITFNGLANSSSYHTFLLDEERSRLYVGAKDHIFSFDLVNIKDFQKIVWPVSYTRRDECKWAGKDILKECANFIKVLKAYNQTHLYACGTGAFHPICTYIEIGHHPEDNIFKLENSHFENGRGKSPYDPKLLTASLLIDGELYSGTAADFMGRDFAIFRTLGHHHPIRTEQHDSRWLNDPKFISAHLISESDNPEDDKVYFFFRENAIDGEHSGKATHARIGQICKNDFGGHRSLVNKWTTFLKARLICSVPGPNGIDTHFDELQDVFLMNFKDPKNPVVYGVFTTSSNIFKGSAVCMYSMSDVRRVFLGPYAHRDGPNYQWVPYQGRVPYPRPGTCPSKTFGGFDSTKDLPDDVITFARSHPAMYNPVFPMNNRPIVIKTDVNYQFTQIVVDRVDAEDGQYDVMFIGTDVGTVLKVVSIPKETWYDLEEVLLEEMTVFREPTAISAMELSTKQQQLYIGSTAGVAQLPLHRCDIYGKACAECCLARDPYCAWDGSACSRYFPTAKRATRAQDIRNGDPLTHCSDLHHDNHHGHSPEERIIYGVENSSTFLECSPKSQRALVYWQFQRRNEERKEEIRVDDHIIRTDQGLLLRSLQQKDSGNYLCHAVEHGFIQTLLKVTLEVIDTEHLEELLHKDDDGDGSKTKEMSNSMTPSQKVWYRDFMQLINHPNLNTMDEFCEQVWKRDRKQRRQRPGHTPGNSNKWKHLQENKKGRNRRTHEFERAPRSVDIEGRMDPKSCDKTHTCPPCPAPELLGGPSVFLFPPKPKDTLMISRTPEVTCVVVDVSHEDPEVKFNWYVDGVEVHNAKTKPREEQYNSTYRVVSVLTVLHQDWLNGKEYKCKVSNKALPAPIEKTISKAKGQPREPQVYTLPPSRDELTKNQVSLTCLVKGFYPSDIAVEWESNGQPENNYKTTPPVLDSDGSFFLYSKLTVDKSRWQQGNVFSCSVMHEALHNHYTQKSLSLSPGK
Test: competition ELISA on coated TPP-13211, competitor biotinylated TPP-15374
Cut-off 0.2 on VAL norm to TPP-9809 (1 to 5 ratio): below means Satisfied, at or above means Not satisfied.

Solved cases (5 shown):
# Binder, Label value
records = [
    ("TPP-15374 (antibody, human IgG1, lambda, V domains shown, human IgG1; also called IgG1, hit from panning; parental mAb) VH: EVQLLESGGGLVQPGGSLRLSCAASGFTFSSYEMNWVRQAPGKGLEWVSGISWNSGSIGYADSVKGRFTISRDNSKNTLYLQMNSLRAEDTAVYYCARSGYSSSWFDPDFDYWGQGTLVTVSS VL: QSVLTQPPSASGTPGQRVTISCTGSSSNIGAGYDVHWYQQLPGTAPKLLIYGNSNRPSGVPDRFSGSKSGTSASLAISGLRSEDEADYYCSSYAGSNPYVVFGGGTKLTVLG", "Not satisfied"),
    ("TPP-26111 (antibody, human IgG1, lambda, V domains shown) VH: EVQLLESGGGLVQPGGSLRLSCAASGFTFDSYEMNWVRQAPGKGLEWVSGISWNSGWIDYADSVKGRFTISRDNSKNTLYLQMNSLRAEDTAVYYCARSGYSSSWFDPDFDYWGQGTLVTVSS VL: QSVLTQPPSVSGAPGQRVTISCTGSSSNIGAGYDVHWYQQLPGTAPKLLIYGNSNRPSGVPDRFSGSKSGTSASLAITGLQAEDEADYYCSSYAGPNPYVVFGGGTKLTVLG", "Satisfied"),
    ("TPP-25255 (antibody, human IgG1, lambda, V domains shown) VH: EVQLLESGGGLVQPGGSLRLSCAASGFDFSSYEMNWVRQAPGKGLEWVSGISWNSGWIDYADSVKGRFTISRDNSKNTLYLQMNSLRAEDTAVYYCARSGYSSSWFDPDFDYWGQGTLVTVSS VL: QSVLTQPPSVSGAPGQRVTISCTGSSSNIGAGYDVHWYQQLPGTAPKLLIYGNSNRPSGVPDRFSGSKSGTSASLAITGLQAEDEADYYCQSYAGPNPYVVFGGGTKLTVLG", "Satisfied"),
    ("TPP-25655 (antibody, human IgG1, lambda, V domains shown) VH: EVQLLESGGGLVQPGGSLRLSCAASGFDFSSYEMNWVRQAPGKGLEWVSGISWNSGWIDYADSVKGRFTISRDNSKNTLYLQMNSLRAEDTAVYYCARSGYSSSWFDPDFDYWGQGTLVTVSS VL: QSVLTQPPSVSGAPGQRVTISCTGSSSNIGAGYDVHWYQQLPGTAPKLLIYGASNRPSGVPDRFSGSKSGTSASLAITGLQAEDEADYYCSSYEGPNPYVVFGGGTKLTVLG", "Not satisfied"),
    ("TPP-25256 (antibody, human IgG1, lambda, V domains shown) VH: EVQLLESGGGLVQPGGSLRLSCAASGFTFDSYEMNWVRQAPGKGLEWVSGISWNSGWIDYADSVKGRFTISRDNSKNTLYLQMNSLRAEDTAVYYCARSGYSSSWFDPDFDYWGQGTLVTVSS VL: QSVLTQPPSVSGAPGQRVTISCTGSSSNIGAGYDVHWYQQLPGTAPKLLIYGNSNRPSGVPDRFSGSKSGTSASLAITGLQAEDEADYYCQSYAGPNPYVVFGGGTKLTVLG", "Satisfied"),
]

[Q] I wonder whether TPP-25497 (antibody, human IgG1, lambda, V domains shown) VH: EVQLLESGGGLVQPGGSLRLSCAASGFDFDSYEMNWVRQAPGKGLEWVSGISWNSGWIDYADSVKGRFTISRDNSKNTLYLQMNSLRAEDTAVYYCARSGYSSSWFDPDFDYWGQGTLVTVSS VL: QSVLTQPPSVSGAPGQRVTISCTGSSSDIGAGYDVHWYQQLPGTAPKLLIYGNSNRPSGVPDRFSGSKSGTSASLAITGLQAEDEADYYCSSYEGINPYVVFGGGTKLTVLG has VAL norm to TPP-9809 (1 to 5 ratio) below 0.2. Can you tell?
[A] Not satisfied
